Values from patent US20250188189A1

Target: T1, plasma-derived human activated protein C (APC) (UniProt P04070 43-461)
T1 chain: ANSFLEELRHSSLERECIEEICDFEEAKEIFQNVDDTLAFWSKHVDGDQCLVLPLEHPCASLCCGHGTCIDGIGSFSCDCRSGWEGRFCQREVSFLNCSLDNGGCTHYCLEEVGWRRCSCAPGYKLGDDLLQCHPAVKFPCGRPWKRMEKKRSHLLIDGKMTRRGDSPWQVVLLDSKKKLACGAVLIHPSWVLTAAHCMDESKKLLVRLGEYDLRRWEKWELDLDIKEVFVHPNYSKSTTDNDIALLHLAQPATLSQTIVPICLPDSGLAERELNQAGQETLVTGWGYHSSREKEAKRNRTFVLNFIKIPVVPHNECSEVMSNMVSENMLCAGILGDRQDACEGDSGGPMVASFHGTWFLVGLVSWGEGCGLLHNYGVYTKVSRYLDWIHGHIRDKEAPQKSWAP
Test: SPR
attribute_measured: pKd
Numbers only, as −log10 of the molar value.

Provide measured pKd value, entry: TPP-24727 (antibody, V domains shown) VH: EVQLVESGGGLVQPGGSLRLSCAASGFTFSNYYLNWVRQAPGKGLEWVGDIRLKSNNYEKHYAESVKGRFTISRDDSKNSLYLQMNSLKTEDTAVYYCAREGDYFDYWGQGTLVTVSS VL: DIVLTQSPASLAVSPGQRATITCKASESVDSFGATFMHWYQQKPGQPPKLLIYLASNLESGVPARFSGSGSGTDFTLTINPVEADDTANYYCQQNNEDPYTFGQGTKLEIKR
7.73
